The reported numbers originate from patent US8993523B2.

Measured pEC50 by item
target: XIAP-BIR3 (Homo sapiens, UniProt P98170); construct: with either 100 nM XIAP-BIR3 or 6 nM cIAP1-BIR3; test: Biacore SPR solution inhibition (competition with smac7mer peptide) binding assay, XIAP-BIR3; conditions: 100 nM XIAP-BIR3, competition with immobilised smac7mer peptide, 25° C.; read-out: XIAP-BIR3 Binding Biacore (Competitive) EC50
Sequence (P98170 241-356 limits assumed): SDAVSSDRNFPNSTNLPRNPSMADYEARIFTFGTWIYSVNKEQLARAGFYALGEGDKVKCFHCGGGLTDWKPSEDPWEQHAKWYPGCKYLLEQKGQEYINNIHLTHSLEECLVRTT
pEC50: −log10 of the molar value.

>  <COMPOUND>
CN[C@@H](C)C(=O)N[C@H](C(=O)N1CCC[C@H]1c1cncc(-n2cc(C(=O)NCCCCCCNC(=O)c3cn(-c4cncc([C@@H]5CCCN5C(=O)[C@@H](NC(=O)[C@H](C)NC)C(C)C)c4)c4ccccc34)c3ccccc32)c1)C(C)C [Example 2L]

>  <pEC50>
7.59

$$$$
>  <COMPOUND>
CN[C@@H](C)C(=O)N[C@H](C(=O)N1CCC[C@H]1c1cncc(-n2ccc3c(C(=O)N[C@H]4CCCC[C@@H]4NC(=O)c4cccc5c4ccn5-c4cncc([C@@H]5CCCN5C(=O)[C@@H](NC(=O)[C@H](C)NC)C(C)C)c4)cccc32)c1)C(C)C [Example 1D]

>  <pEC50>
7.12

$$$$

* * *

Measured EC50 by item
target: cIAP1-BIR3 (Homo sapiens); construct: with either 100 nM XIAP-BIR3 or 6 nM cIAP1-BIR3; experiment: Biacore SPR solution inhibition (competition with smac7mer peptide) binding assay, cIAP1-BIR3; conditions: 6 nM cIAP1-BIR3, competition with immobilised smac7mer peptide, 25° C.; read-out: CIAP-BIR3 Binding Biacore (Competitive) EC50
Sequence (Q13490 260-352 limits assumed): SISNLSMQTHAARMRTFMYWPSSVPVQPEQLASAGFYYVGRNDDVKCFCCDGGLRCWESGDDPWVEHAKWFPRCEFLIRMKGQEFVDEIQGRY
METRIC NAME: EC50

>  <COMPOUND>
CN[C@@H](C)C(=O)N[C@H](C(=O)N1CCC[C@H]1c1cncc(-n2cc(C(=O)NCCCOCCCNC(=O)c3cn(-c4cncc([C@@H]5CCCN5C(=O)[C@@H](NC(=O)[C@H](C)NC)C(C)C)c4)c4ccccc34)c3ccccc32)c1)C(C)C [Example 2I]

>  <METRIC NAME>
EC50

>  <RESULT>
0.5 to 0.51 nM

$$$$
>  <COMPOUND>
[2H]C([2H])([2H])N[C@@H](C)C(=O)N[C@H](C(=O)N1CCC[C@H]1c1cncc(-n2ccc3c(C(=O)NCCCOCCOCCCNC(=O)c4cccc5c4ccn5-c4cncc([C@@H]5CCCN5C(=O)[C@@H](NC(=O)[C@H](C)NC([2H])([2H])[2H])C(C)C)c4)cccc32)c1)C(C)C [Example 3A]

>  <METRIC NAME>
EC50

>  <RESULT>
0.59 nM

$$$$
>  <COMPOUND>
CN[C@@H](C)C(=O)N[C@H](C(=O)N1CCC[C@H]1c1cncc(-n2cc(C(=O)NCCCOCCOCCOCCCNC(=O)c3cn(-c4cncc([C@@H]5CCCN5C(=O)[C@@H](NC(=O)[C@H](C)NC)C(C)C)c4)c4ccccc34)c3ccccc32)c1)C(C)C [Example 2C]

>  <METRIC NAME>
EC50

>  <RESULT>
0.97 to 0.98 nM

$$$$
>  <COMPOUND>
CN[C@@H](C)C(=O)N[C@H](C(=O)N1CCC[C@H]1c1cncc(-n2cc(C(=O)NCc3ccc(-c4ccc(CNC(=O)c5cn(-c6cncc([C@@H]7CCCN7C(=O)[C@@H](NC(=O)[C@H](C)NC)C(C)C)c6)c6ccccc56)cc4)cc3)c3ccccc32)c1)C(C)C [Example 2G]

>  <METRIC NAME>
EC50

>  <RESULT>
2.24 to 2.27 nM

$$$$

* * *

Measured EC50 by item
molecular target: cIAP1-BIR3 (Homo sapiens); construct: with either 100 nM XIAP-BIR3 or 6 nM cIAP1-BIR3; assay: Biacore SPR solution inhibition (competition with smac7mer peptide) binding assay, cIAP1-BIR3; settings: 6 nM cIAP1-BIR3, competition with immobilised smac7mer peptide, 25° C.; read-out: CIAP-BIR3 Binding Biacore (Competitive) EC50
METRIC NAME: EC50

>  <SUBSTANCE SMILES>
CN[C@@H](C)C(=O)N[C@H](C(=O)N1CCC[C@H]1c1cncc(-n2cc(C(=O)N3CC4(C3)CN(C(=O)c3cn(-c5cncc([C@@H]6CCCN6C(=O)[C@@H](NC(=O)[C@H](C)NC)C(C)C)c5)c5ccccc35)C4)c3ccccc32)c1)C(C)C

>  <RESULT>
0.57 to 0.68 nM

$$$$
>  <SUBSTANCE SMILES>
CN[C@@H](C)C(=O)N[C@H](C(=O)N1CCC[C@H]1c1cncc(-n2cc(C(=O)N[C@H]3CC[C@H](NC(=O)c4cn(-c5cncc([C@@H]6CCCN6C(=O)[C@@H](NC(=O)[C@H](C)NC)C(C)C)c5)c5ccccc45)CC3)c3ccccc32)c1)C(C)C

>  <RESULT>
0.7 to 0.71 nM

$$$$
>  <SUBSTANCE SMILES>
CN[C@@H](C)C(=O)N[C@H](C(=O)N1CCC[C@H]1c1cncc(-n2cc(C(=O)N3CCN(C(=O)c4cn(-c5cncc([C@@H]6CCCN6C(=O)[C@@H](NC(=O)[C@H](C)NC)C(C)C)c5)c5ccccc45)CC3)c3ccccc32)c1)C(C)C

>  <RESULT>
2.17 to 2.18 nM

$$$$
>  <SUBSTANCE SMILES>
CN[C@@H](C)C(=O)N[C@H](C(=O)N1CCC[C@H]1c1cncc(-n2cc(C(=O)NCCNC(=O)c3cn(-c4cncc([C@@H]5CCCN5C(=O)[C@@H](NC(=O)[C@H](C)NC)C(C)C)c4)c4ccccc34)c3ccccc32)c1)C(C)C

>  <RESULT>
0.21 to 0.86 nM

$$$$
>  <SUBSTANCE SMILES>
CN[C@@H](C)C(=O)N[C@H](C(=O)N1CCC[C@H]1c1cncc(-n2cc(C(=O)NCCCOCCOCCCNC(=O)c3cn(-c4cncc([C@@H]5CCCN5C(=O)[C@@H](NC(=O)[C@H](C)NC)C(C)C)c4)c4ccccc34)c3ccccc32)c1)C(C)C

>  <RESULT>
0.52 to 1.83 nM

$$$$
